system: L-Dopa-induced locomotive activity; test: Potentiation of locomotive activity induced on mice by L-Dopa; assay type: in vivo; conditions: compound 20 mg/kg i.p., 90 min, percent related to TRH
measurement label: Potentiation of the locomotive effect of L-Dopa, % after 90'
Please provide the amount together with its unit, number first.

Inquiry: // returns reported Potentiation of the locomotive effect of L-Dopa, % after 90' for input CCC[C@H](NC(=O)C1CCCC(=O)N1)C(=O)N1CCCC[C@H]1C(N)=O (stereo partly drawn) [Kpc Nva HPro]
Reply text: 108%

###

# Reserpine hypothermy reversing effect, rectal temperature res. values compiled below
system: Reserpine hypothermy; experiment: Reserpine hypothermy-reversing effect on mice; assay type: in vivo; settings: 16 hours after reserpine 5 mg/kg i.p., before the tripeptide, average of 10 animals
Where a SMILES comes first, the peptide text is derived from it. [ ]: non-standard residue; d: D form. d(pGlu) = O=C1CC[C@H](C(=O)O)N1
State the answer as a number, implicitly in °C.

// known answers, use as guide
Inquiry: // returns reported Reserpine hypothermy reversing effect, rectal temperature res. for input CCC[C@H](NC(=O)C1CCCC(=O)N1)C(=O)N1CCCC[C@H]1C(N)=O (some centres unmarked)
Reply text: 20.7

Inquiry: // returns reported Reserpine hypothermy reversing effect, rectal temperature res. for input CC(C)C[C@H](NC(=O)[C@H]1CCC(=O)N1)C(=O)N1CCC[C@H]1C(N)=O [D-Glp Leu Pro, D-Pyroglutamyl-L-leucyl-L-prolinamide] ([d(pGlu)]-Leu-Pro-NH2)
Reply text: 27.4

Inquiry: // returns reported Reserpine hypothermy reversing effect, rectal temperature res. for input CCC[C@H](NC(=O)C1CCCC(=O)N1)C(=O)N1CCC[C@H]1C(N)=O (some centres unmarked)
Reply text: 23.9

Others:
Inquiry: // returns reported Reserpine hypothermy reversing effect, rectal temperature res. for input CC(C)C[C@H](NC(=O)C1CCCC(=O)N1)C(=O)N1CCC[C@H]1C(N)=O (some centres unmarked)
Reply text: 24.5

Inquiry: // returns reported Reserpine hypothermy reversing effect, rectal temperature res. for input CC(C)C[C@H](NC(=O)C1CNC(=O)N1)C(=O)N1CCC[C@H]1C(N)=O (some centres unmarked)
Reply text: 24.1
